Every entry's value here was drawn from ChEMBL document CHEMBL5537149.

experiment: Selectivity index, ratio of CC50 for cytotoxicity against African green monkey Vero cells to EC50 for antiviral activity against Chikungunya virus infected in African green monkey Vero cells assessed as reduction in viral induced cell death; assay type: toxicity, cell-based; conditions: read-out: Ratio CC50/EC50
Friendly reminder: selectivity ratio below 80 is true, at or above is false.

Below are worked cases with known answers.
molecular_string=CCNc1nc(C)cc(N2CCN(C(=O)c3ccc(OC)cc3)CC2)n1 class=false
molecular_string=CCNc1nc(C)cc(NC2CCN(C(=O)c3cc(Cl)cc(Cl)c3)CC2)n1 class=true
molecular_string=CCNc1nc(C)cc(N2CCN(C(=O)c3ccc(C)cc3)CC2)n1 class=false
molecular_string=CCNc1cc(N2CCN(S(=O)(=O)c3ccc(Cl)cc3)CC2)ncn1 class=true

Alright, here's another compound for you.
Hi there! Is selectivity ratio for CCNc1ccnc(N2CCN(C(=O)c3ccc(F)cc3)CC2)n1 below 80, do you know? true
